study-target: Androgen receptor (Homo sapiens)
protocol-description: ATG_AR_TRANS: Attagene TRANS-FACTORIAL HepG2 Assay for human Androgen Receptor (AR) (AID 2282973)
stated-conditions: HepG2 Attagene TRANS-FACTORIAL AR reporter transcription
Records with an inconclusive call do not appear. Active and inactive are the calls of the source. The calls were made as follows: active = hit-call score of the fitted dose curve at least 0.9, where 1 is the maximum; inconclusive = response in the unintended direction; inactive = score below 0.9.

{"columns": ["chemical-string", "outcome"],
 "data": [
  ["CC(C)(C)CC(C)(C)c1ccc(O)cc1", "inactive"],
  ["COS(=O)(=O)c1ccc(C)cc1", "inactive"],
  ["CCc1ccccc1C", "inactive"]
]}

----------
study-target: rat Peripheral-type Benzodiazepine Receptor (PBR), Tspo (gene 24230)
protocol-description: NVS_MP_rPBR: NovaScreen (NVS) Membrane Protein Assay for rat Peripheral-type Benzodiazepine Receptor (PBR) (AID 2283335)
Procedure: NVS_MP_rPBR is a biochemical, single-readout assay that uses extracted gene-proteins from Rat kidney membranes in a tissue-based cell-free assay. Measurements were taken 1 hour after chemical dosing in a 48-well plate.NVS_MP_rPBR is one of one assay component(s) measured or calculated from the NVS_MP_rPBR assay. […] This assay endpoint, NVS_MP_rPBR, was analyzed in the positive analysis fitting direction relative to DMSO as the negative control and baseline of activity. […]
Inconclusive results are not listed. Calls of active or inactive are those of the source. The calls were made as follows: active = hit-call score of the fitted dose curve at least 0.9, where 1 is the maximum; inconclusive = response in the unintended direction; inactive = score below 0.9.
Write down the outcome that applies. Available outcomes: 1 (yes) = active, 0 (no) = inactive

stdin: I would be grateful if you could indicate the recorded call for `O=[N+]([O-])c1ccc2c3c(cccc13)CC2` .
stdout: 1 (yes)

stdin: Entry `COP(=S)(OC)Oc1ccc(S(=O)(=O)N(C)C)cc1` : call = ?
stdout: 1 (yes)

stdin: What was the test verdict on Clc1ccc(COC(Cn2ccnc2)c2ccc(Cl)cc2Cl)cc1 (centres undefined) ?
stdout: 1 (yes)

stdin: Assay result, entry CCOP(=S)(OCC)Oc1ccc(S(C)=O)cc1 (centres undefined) — outcome?
stdout: 0 (no)

stdin: Which result was noted for this molecule in the test: `Nc1cccc2ccccc12`
stdout: 0 (no)

stdin: Could you check what this test reported for `CCCCCCCCC(=O)NCc1ccc(O)c(OC)c1` ?
stdout: 1 (yes)

stdin: Give the logged outcome of this assay for the following molecule: `Cn1sc(Cl)cc1=O`
stdout: 0 (no)

stdin: # fetch the recorded call for `O=Cc1cccc(Oc2ccccc2)c1` here
stdout: 0 (no)

stdin: Any idea what this test logged for `Cc1ccccc1C(=O)Nc1cccc(OC(C)C)c1` ?
stdout: 1 (yes)

stdin: Just curious, what result did `O=C(Cc1ccccc1)c1ccccc1` get here?
stdout: 1 (yes)

stdin: Any idea what this test logged for `CCNc1nc(NC(C)(C)C)nc(SC)n1` ?
stdout: 0 (no)

stdin: Which outcome was entered for the molecule `CCOC(=O)/C=C(C)/C=C/C[C@@H](C)CCCC(C)C` in this test?
stdout: 1 (yes)

stdin: In this assay, the call recorded for `CC(C)(C)CC(C)(C)c1ccc(O)cc1` was what?
stdout: 0 (no)

stdin: Any idea what this test logged for `C[C@H]1CCCC(=O)CCC/C=C/c2cc(O)cc(O)c2C(=O)O1` ?
stdout: 1 (yes)

----------
protocol-description: CCTE_Mundy_HCI_hNP1_CellTiter: CCTE's Cell Titer-Glo 2 Assay in human neuroprogenitor cells for Viability, Mundy Lab (AID 2284241)
Inconclusive results are not listed. Active and inactive are the calls of the source. How the source made its calls: active means hit-call score of the fitted dose curve at least 0.9, where 1 is the maximum; inconclusive means response in the unintended direction; inactive means score below 0.9.
In this exercise, the only acceptable responses are active, inactive

{"columns": ["compound", "answer-label"],
 "data": [
  ["CCOP(=S)(OCC)Oc1nc(Cl)c(Cl)cc1Cl", "active"]
]}

stdin: Hey, what did the test say about O=C1C2(Cl)C3(Cl)C4(Cl)C(Cl)(Cl)C5(Cl)C3(Cl)C1(Cl)C5(Cl)C24Cl (centres undefined) ?
stdout: active

stdin: Call for entry `O=C(O)C(F)(F)C(F)(F)C(F)(F)C(F)(F)C(F)(F)C(F)(F)F` :
stdout: inactive

stdin: # outcome recorded in this test, key = `C=C(C)C(=O)[O][Sn]([CH2]CCC)([CH2]CCC)[CH2]CCC`
stdout: active
